Numbers sourced from ChEMBL document CHEMBL3627615.

Test system: Mycobacterium tuberculosis
test-summary: Antimycobacterial activity against extensively drug-resistant Mycobacterium tuberculosis FJ05195 after 3 to 4 weeks by microplate alamar blue assay
Assay type: functional
quantity-name: MIC90 (µg/mL)
# number only, unit µg/mL dropped from output

MIC90 recorded for this compound, O=C(c1ccc2c(c1)OCCO2)C1CCN(Cc2coc(-c3ccc(F)c(F)c3)n2)CC1 , is 8

Others:
Short answer for O=C(c1ccc2c(c1)OCCO2)C1CCN(Cc2coc(-c3ccoc3)n2)CC1 : MIC90 was 64

Sample O=C(c1ccc2c(c1)OCCO2)C1CCN(Cc2coc(-c3cccc(F)c3)n2)CC1 ; MIC90 observed: 8

Record summary for COc1ccc(C(=O)C2CCN(Cc3coc(-c4ccc(F)cc4)n3)CC2)cc1 : reported MIC90 = 8

Reported MIC90 ( O=C(c1ccc2c(c1)OCCO2)C1CCN(Cc2coc(-c3ccco3)n2)CC1 ) = 32

MIC90 for CN[C@@H]1[C@H](O[C@H]2[C@H](O[C@H]3[C@H](O)[C@@H](O)[C@H](N=C(N)N)[C@@H](O)[C@@H]3N=C(N)N)O[C@@H](C)[C@]2(O)C=O)O[C@@H](CO)[C@H](O)[C@H]1O [STREPTOMYCIN] is 64

Please fill in: MIC90 reported for CC(C)(C)c1ccc(-c2nc(CN3CCC(C(=O)c4ccc5c(c4)CCCC5)CC3)co2)cc1 = 4

====

System: Mycobacterium tuberculosis
test-summary: Antimycobacterial activity against extensively drug-resistant Mycobacterium tuberculosis FJ05195 after 3 to 4 weeks by microplate alamar blue assay
Format: functional
Here the recorded MIC90 is given for each entry.
Answer with a number only, understood to be in µg/mL.

Below are worked cases with known answers.
MIC90 recorded for this molecule, O=C(c1ccc2c(c1)OCCO2)C1CCN(Cc2coc(-c3ccc(Br)cc3)n2)CC1 , is 8

For record COc1ccc(-c2nc(CN3CCC(C(=O)c4ccc5c(c4)OCCO5)CC3)co2)cc1 the listed MIC90 is 4

Sample CC[C@@H](CO)NCCN[C@@H](CC)CO ; MIC90 observed: 8

---
# molecule O=C(c1ccc2c(c1)OCCO2)C1CCN(Cc2coc(-c3ccc(Cl)cc3)n2)CC1 ; its MIC90 = 4

Entry under test: COc1ccc(C(=O)C2CCN(Cc3coc(-c4ccc(F)cc4)n3)CC2)cc1OC . Its MIC90 was 16

So for O=C(c1ccc(F)c(F)c1)C1CCN(Cc2coc(-c3ccc(F)cc3)n2)CC1 , the logged MIC90 turned out to be 8
